Item-by-item account of EC50
subject_of_test: EDG-1/S1P1 receptor (Homo sapiens, UniProt P21453)
Sequence (P21453 whole entry): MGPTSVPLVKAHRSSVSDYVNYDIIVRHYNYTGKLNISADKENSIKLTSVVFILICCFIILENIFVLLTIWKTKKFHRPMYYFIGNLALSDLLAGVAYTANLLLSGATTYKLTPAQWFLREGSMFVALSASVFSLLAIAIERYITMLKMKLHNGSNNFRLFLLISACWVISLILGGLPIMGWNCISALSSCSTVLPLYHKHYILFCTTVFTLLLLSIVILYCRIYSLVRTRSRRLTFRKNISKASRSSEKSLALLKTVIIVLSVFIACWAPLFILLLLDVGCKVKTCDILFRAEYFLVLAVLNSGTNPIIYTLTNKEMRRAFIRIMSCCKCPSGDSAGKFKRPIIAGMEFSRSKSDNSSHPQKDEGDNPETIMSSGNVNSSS
experiment_notes: In Vitro Cell Based Receptor Activation Assay-Transfluor Assay
applied_conditions: inhibition of S1P-stimulated (375 nM or 750 nM) beta-arrestin GFP relocalization; EDG-1 Transfluor U20S WT Clone #37 cells
// units = nM; emit number, no label

compound="CCn1c(OC)nnc1[C@@H](Cc1cccnc1)NS(=O)(=O)c1ccc(Cl)cc1 [Example 16]" subject_of_test="EDG-1/S1P1 receptor (Homo sapiens, UniProt P21453)" property=EC50 unit_annotation=nM value_reported=133

Proceed to the following item.
IN: Looking for the measured EC50 of CCn1c(C(C)NS(=O)(=O)c2ccc(Cl)cc2)nnc1C(F)(F)F (centres unmarked) [Example 11] , can you help?
OUT: 670

Source of measurements: patent US20100197749A1
